Tested on: Schistosoma mansoni schistosomula (Liberian)
Test: drug effect (1 - score/DMSO control score) (fraction); higher = more antischistosomal effect, active = 0.5 or more; extreme values may be limits of the assay
Details: 48 h; 10 µM
Answer with one of the outcomes given here: TRUE (active), FALSE (inactive)

Would you please look over these solved cases?
{"Compound": "COc1ccc2nccc(NC(=O)C3CCN(CCc4ccc(Cl)cc4)CC3)c2n1", "Class Assignment": "FALSE"}
{"Compound": "CCn1cnc2c(Nc3cc(F)cc(F)c3)nc(C#N)nc21", "Class Assignment": "TRUE"}
{"Compound": "Cc1cc(OCC(=O)NCc2ccccc2)c2cc(Br)ccc2n1", "Class Assignment": "FALSE"}

Per the assay record, what outcome was assigned to Cc1cc2nc(NC(=O)C(C)(C)C)nc(Cl)c2n1Cc1ccc(Cl)cc1 ?
FALSE

And the next one, CC(Oc1cccc(Cl)c1)C(=O)Nc1ccc2oc(-c3ccncc3)nc2c1 (configuration not stated) ?
FALSE

And the next one, COC(=O)c1ccc(F)cc1NS(=O)(=O)c1cccc(-c2cnn(Cc3ccccc3)c2)c1 ?
FALSE

And the next one, c1cncc(NCc2ccc(-c3cc4ccncc4cc3OC3CCNCC3)s2)c1 ?
FALSE

* * *

Tested on: Schistosoma mansoni schistosomula (Liberian)
Assay: drug effect (1 - score/DMSO control score) (fraction); higher = more antischistosomal effect, active = 0.5 or more; extreme values may be limits of the assay
Conditions: 24 h; 10 µM
Answer with one of the outcomes given here: 1 = active, 0 = inactive

Per the assay record, what outcome was assigned to CC1(COc2ccc(N3CCC(Oc4ccc(OC(F)(F)F)cc4)CC3)cc2)Cn2cc([N+](=O)[O-])nc2O1 (configuration not stated) ?
0

And the next one, O=C(Nc1c(O)cccc1-c1nc2c(C(=O)O)cccc2o1)c1cc(-c2ccccc2)on1 ?
0

And the next one, CS(=O)(=O)N1CCC(CCn2nc(Cc3cccc4ccccc34)c3c(N)ncnc32)CC1 ?
0

And the next one, Cc1cc(OCC(=O)Nc2ccc(C(C)C)cc2)n(C)c(=O)c1C#N ?
0

And the next one, COc1cc(OC)cc(C(=O)NCC2Cc3cc(Cl)cc(-c4ccncc4)c3O2)c1 (configuration not stated) ?
0

And the next one, Cc1cc(C)n2nc(C(=O)Nc3cc(C(F)(F)F)ccc3N3CCOCC3)nc2n1 ?
0

And the next one, O=C(Nc1ccc(F)c(-c2nc3cc(-c4ccccc4)cnc3[nH]2)c1)N1CCCC1 ?
1

And the next one, COC(=O)c1cccc2oc(-c3cccc(OC)c3NC(=O)c3cc(-c4ccccc4)on3)nc12 ?
0

And the next one, CC(c1cc(Cl)cc(Cl)c1)N(C)c1ncc2c(N)nc(N)nc2n1 (configuration not stated) ?
0

And the next one, Cc1ccc(NC(=O)c2nc[nH]c2C(=O)Nc2nc3ccccc3[nH]2)c(C)c1 ?
0

And the next one, CCCCc1ccc(NC(=O)Nc2ccc(O[C@H]3CCCC[C@@H]3N(C)c3ccccc3)c(F)c2)cc1 ?
0

And the next one, CC(C)(C)CN1C(=O)C(c2ccccc2)(c2ccccc2)N=C1N ?
0

And the next one, COc1ccc(-c2cnc3cnc(-c4cccc(OC(C)C)c4)cn23)cc1 ?
0

And the next one, C[C@@H]1[C@H](O)[C@@H](C)/C=C/C=C/C=C/C=C/C=C/C=C/C=C/[C@H](O[C@@H]2O[C@H](C)[C@@H](O)[C@H](N)[C@@H]2O)C[C@@H]2O[C@](O)(C[C@@H](O)C[C@@H](O)[C@H](O)CC[C@@H](O)C[C@@H](O)CC(=O)O[C@H]1C)C[C@H](O)[C@H]2C(=O)O ?
0

And the next one, Nc1ncnc2c1c(Cc1cccc3ccccc13)nn2CC1CCNCC1 ?
0

* * *

Test system: Schistosoma mansoni schistosomula (Liberian)
Assay: drug effect (1 - score/DMSO control score) (fraction); higher = more antischistosomal effect, active = 0.5 or more; extreme values may be limits of the assay
Conditions: 48 h; 10 µM
Answer with one of the outcomes given here: active, inactive

Per the assay record, what outcome was assigned to c1ccc(Oc2ccc(-c3cncc(-c4ccc5[nH]ccc5c4)n3)cc2)cc1 ?
active

* * *

Reported phenotypic severity score values are given for each entry in this list.
System: Schistosoma mansoni schistosomula (NMRI)
Assay: phenotypic severity score (0-4); higher = more antischistosomal effect, active = 2 or more
Details: 48 h; 10 µM

The cases that follow already have their phenotypic severity score on record.
{"Compound": "O=C(NC1CCN(c2ccnc3ccccc23)C1)c1cccc(C(F)(F)F)c1 (stereo not given)", "Value": "0 (inactive)"}
{"Compound": "COc1ccc(S(=O)(=O)Nc2ccc(CN3CCN(C(=O)c4cccc(C#N)c4)CC3)cc2)cc1", "Value": "0 (inactive)"}
{"Compound": "Cc1ccc(C(=O)Nc2ccc(S(=O)(=O)O)c3cc(S(=O)(=O)O)cc(S(=O)(=O)O)c23)cc1NC(=O)c1cccc(NC(=O)Nc2cccc(C(=O)Nc3cc(C(=O)Nc4ccc(S(=O)(=O)O)c5cc(S(=O)(=O)O)cc(S(=O)(=O)O)c45)ccc3C)c2)c1", "Value": "0 (inactive)"}
{"Compound": "N=C(N)Nc1ccc(-c2ccc(-c3ccc(N=C(N)N)c(Cl)c3)o2)cc1Cl", "Value": "0 (inactive)"}
{"Compound": "FC(F)(F)c1cccc(-c2nc3c(NCc4ccncc4)nccc3[nH]2)c1", "Value": "0 (inactive)"}
{"Compound": "Cn1ncc2c(N3CCOCC3)nc(NCCc3c[nH]c4ccccc34)nc21", "Value": "4 (active)"}
{"Compound": "FC(F)(F)c1cc(NCCc2ccccc2)nc(-c2ccccn2)n1", "Value": "2 (active)"}
{"Compound": "COc1cccc(CC(=O)N2CCC(n3c(C)nc4ccc(F)cc43)CC2)c1", "Value": "1 (inactive)"}
{"Compound": "O=C(Nc1c(O)cccc1-c1nc2c(C(=O)O)cccc2o1)c1cc(-c2ccccc2)on1", "Value": "0 (inactive)"}
{"Compound": "C[C@H](C(N)=O)N1CCCC[C@H]1c1ccc(OCc2cccc(F)c2)cc1", "Value": "0 (inactive)"}

// lookup phenotypic severity score for N#CCN(CCCCN1CCN(c2ccc(F)cc2)CC1)C(=O)OCc1ccccc1
0 (inactive)

And the next one, CC(C)C(Oc1cccc2ccccc12)C(=O)O (stereo not given) ?
0 (inactive)

And the next one, Nc1nc(N)c2c3c(sc2n1)CN(Cc1ccccc1)CC3 ?
0 (inactive)

And the next one, Cc1ccccc1CN1CCC(O)(c2ccc(Cl)c(C(F)(F)F)c2)CC1 ?
0 (inactive)

And the next one, O=C(c1ccco1)N(CCCn1ccnc1)c1nc2c(Cl)cccc2s1 ?
0 (inactive)

* * *

System: Schistosoma mansoni schistosomula (NMRI)
Assay: phenotypic severity score (0-4); higher = more antischistosomal effect, active = 2 or more
Conditions: 48 h; 10 µM
Reported phenotypic severity score values are given for each entry in this list.
// keep it numeric: no unit symbol after the value

The cases that follow already have their phenotypic severity score on record.
{"Compound": "COc1cccc(OCC(=O)c2ccc(Br)cc2)c1", "phenotypic severity score": 0}
{"Compound": "CC(C)n1ncc2c(C(=O)NCC(c3cccs3)N3CCOCC3)cc(-c3ccccc3)nc21 (configuration not stated)", "phenotypic severity score": 0}
{"Compound": "CCN(CC)CCCCCCNc1cc(OC)cc2c(C)ccnc12", "phenotypic severity score": 0}
{"Compound": "CC(=O)N(CCN(C(=O)c1ccc(F)cc1)c1ccccc1)c1ccccc1", "phenotypic severity score": 0}
{"Compound": "Cc1ccc(NC(=O)CC2COc3ccccc3O2)cc1Cl (configuration not stated)", "phenotypic severity score": 0}

Notebook entry, Schistosoma mansoni schistosomula (NMRI) assay: phenotypic severity score of COc1ccc(C(=N)N)cc1-c1cn(-c2ccc(C(=N)N)cc2)nn1 = ?
0

And the next one, COc1ccc(C2=NN(C3CCCCCC3)C(=O)C2(C)C)cc1OCCCCOc1ccc(-c2nn[nH]n2)cc1 ?
0

And the next one, O=C(NCCN1CCCC1)c1cc(NCCN2CCOCC2)nc2ccc(Cl)cc12 ?
0

And the next one, FC(F)(F)c1nnc2ccc(Cl)nn12 ?
0

And the next one, COc1cccc2c(C)nc(N=C(N)N)nc12 ?
0

And the next one, COc1cc(C2=NCCN2)ccc1-n1cc(-c2cccc(C3=NCCN3)c2)nn1 ?
0

And the next one, N=C(N)Nc1ccc(-c2ccc(-c3ccc(NC(=N)N)cc3Cl)o2)c(Cl)c1 ?
0

And the next one, COc1cccc(-c2cc3c(Nc4cccnc4)nccc3[nH]2)c1 ?
0

And the next one, O=C(Nc1ccnc(-c2cccnc2)n1)c1cc(C(F)(F)F)cc(C(F)(F)F)c1 ?
0

And the next one, O=C1N(Cc2cc3ccccc3s2)CC2CN(Cc3ccccc3)CCN12 (configuration not stated) ?
0

And the next one, CC1CCCN(C(=O)C(C)Nc2cc(Cl)ccc2N2CCOCC2)C1 (configuration not stated) ?
0

And the next one, CC[C@@H]([C@H](C)O)n1ncn(-c2ccc(N3CCN(c4ccc(OC[C@@H]5CO[C@@](Cn6cncn6)(c6ccc(F)cc6F)C5)cc4)CC3)cc2)c1=O ?
4

And the next one, COc1cccc(NC(=O)c2c(NC(=O)c3cccnc3)sc3c2CCC3)c1 ?
0

And the next one, CN1CCC(NCc2cccc(-c3ccc(S(=O)(=O)NCc4ccccc4)cc3)c2)CC1 ?
2

And the next one, Nc1ncnc2[nH]nc(Cc3cccc4ccccc34)c12 ?
2

And the next one, O=C(Nc1cnc2ccccc2c1)c1cccc(-n2cnnn2)c1 ?
0

And the next one, O=C(Nc1nnc(S)s1)c1cc(Br)ccc1Cl ?
0

And the next one, CC(C)=CCC/C(C)=C\CNCCNC1C2CC3CC(C2)CC1C3 (configuration not stated) ?
4

And the next one, C[C@H]1COc2c(N3CCN(C)CC3)c(F)cc3c(=O)c(C(=O)O)cn1c23 ?
0

And the next one, Cc1ccc2c(c1C)NC(=O)C21NN=C(c2ccccc2)S1 (configuration not stated) ?
0

And the next one, O=C(c1[nH]nc2c1CCCC2)N1CCN(Cc2ccc3c(c2)OCO3)CC1 ?
0

And the next one, CCCCS(=O)(=O)Nc1ccc2cnn(C)c2c1 ?
0

Origin of measurements: the supplement of paper PMC6805474
